assay: in vitro; conditions: human, Viability at 10µM (MTT viability)
Counter-ions that a name gives are not always drawn.
Below, each entry is listed alongside its reported viability at 10 µM.
Parameter measured: viability at 10 µM (%)

In [3]: df
Out[3]:
                                    compound  value_unit  numeric_value
 0                 O=C(O)/C=C/c1ccc2ccccc2n1           %           88.5
 1  Cc1ccc2ccc(C(=O)c3ccc([N+](=O)[O-])cc3)c(O)c2n1           %           77.1
 2  COc1ccc(/C=C/c2ccc3ccc(C(O)c4cccc(C#N)c4)c(OC)c3n2)cc1OC (stereo not shown)           %           77.5
 3                    Cc1ccnc2c(O)ccc(Cl)c12           %           51.4
 4                   COc1ccc(Cl)c2c(C)ccnc12           %           90.1
 5  O=[N+]([O-])c1cccc(-c2cc(Br)c(O)c3nc(/C=C/c4ccc(O)c(O)c4)ccc23)c1           %           58.9
 6                    N#C/C=C/c1ccc2ccccc2n1           %             88
 7  Cc1ccc(C(=O)c2ccc3ccc(/C=C/c4ccc(O)c(O)c4)nc3c2O)cc1[N+](=O)[O-]           %           67.6
 8  O=C(c1ccccn1)c1ccc2ccc(/C=C/c3ccc(O)c(O)c3)nc2c1O           %            105
 9  CCN(CC)Cc1cc(Nc2ccnc3cc(Cl)ccc23)ccc1O [Amodiaquine, amodiaquine dihydrochloride dihydrate, reference compound]           %           87.7
10      O=C(O)c1ccc2ccc(/C=C/c3cccnc3)nc2c1O           %           96.7
11  CC(=O)Nc1ccc(/C=C/c2ccc3ccc(C(=O)O)c(O)c3n2)cc1           %           72.7
12                         CCCc1ccc2ccccc2n1           %           97.6
13  O=C(c1ccc(F)c(F)c1)c1ccc2ccc(/C=C/c3ccc(O)c(O)c3)nc2c1O           %           43.5
14              Cc1ccc2c(C=O)cc(C=O)c(O)c2n1           %           90.3
15  O=C(c1ccc([N+](=O)[O-])cc1)c1ccc2ccc(/C=C/c3ccc(O)c(O)c3)nc2c1O           %           70.5

----------
test system: Ebola virus replication (trVLP); experiment: microbe, parasite or virus in culture; format: cell-based, Ebola Zaire; settings: Zaire ebolavirus, HEK-293T, read-out: Inhibition at 10µM (percent inhibition of trVLP replication)
Counter-ions that a name gives are not always drawn.
Entries and their inhibition at 10 µM values follow.
Parameter measured: inhibition at 10 µM (%)

>>> print(df.to_string())
                                    compound                      system_name   parameter_measured  numeric_value
 0  O=C(c1ccc([N+](=O)[O-])cc1)c1ccc2ccc(/C=C/c3ccc(O)c(O)c3)nc2c1O  Ebola virus replication (trVLP)  inhibition at 10 µM          -17.9
 1                     NC/C=C/c1ccc2ccccc2n1  Ebola virus replication (trVLP)  inhibition at 10 µM             89
 2  OC(Cc1ccc2ccccc2n1)c1ccccc1 (centres unmarked)  Ebola virus replication (trVLP)  inhibition at 10 µM           -114
 3  C#CC(O)CCCCCCCCCCCCC#Cc1ccc2ccccc2n1 (centres unmarked)  Ebola virus replication (trVLP)  inhibition at 10 µM           93.3
 4                    Cc1ccnc2c(O)ccc(Cl)c12  Ebola virus replication (trVLP)  inhibition at 10 µM          -66.5
 5                   COc1ccc(Cl)c2c(C)ccnc12  Ebola virus replication (trVLP)  inhibition at 10 µM           49.7
 6  COc1ccc(/C=C/c2ccc3ccc(C(O)c4cccc(C#N)c4)c(OC)c3n2)cc1OC (centres unmarked)  Ebola virus replication (trVLP)  inhibition at 10 µM          -10.2
 7  CCn1cc(C(=O)O)c(=O)c2ccc(/C=C/c3ccc(O)c(O)c3)nc21  Ebola virus replication (trVLP)  inhibition at 10 µM            -74
 8    Cc1ccc2ccc(C(=O)NCc3ccc(F)cc3)c(O)c2n1  Ebola virus replication (trVLP)  inhibition at 10 µM           80.8
 9       C(=C\c1ccc2ccccc2n1)/c1ccc2ccccc2n1  Ebola virus replication (trVLP)  inhibition at 10 µM           74.3
10  CC(=O)Nc1ccc(/C=C/c2ccc3ccc(C(=O)O)c(O)c3n2)cc1  Ebola virus replication (trVLP)  inhibition at 10 µM           21.8
11  O=[N+]([O-])c1cccc(-c2cc(Br)c(O)c3nc(/C=C/c4ccc(O)c(O)c4)ccc23)c1  Ebola virus replication (trVLP)  inhibition at 10 µM           76.2
12  CCCCOC(=O)c1ccc2ccc(/C=C/c3cc(OC)c(O)c([N+](=O)[O-])c3)nc2c1O  Ebola virus replication (trVLP)  inhibition at 10 µM          -8.41
13  O=C(NCc1ccc(O)c(O)c1)c1ccc2cccc(C(=O)O)c2n1  Ebola virus replication (trVLP)  inhibition at 10 µM           -124
14  COc1cc(Cc2c(C)nc3ccccc3c2C(=O)O)c(Cl)c2c(C)ccnc12  Ebola virus replication (trVLP)  inhibition at 10 µM           -156
15  CCCCCCCCC(=O)c1ccc2ccc(/C=C/c3ccc(O)c(O)c3)nc2c1O  Ebola virus replication (trVLP)  inhibition at 10 µM          -48.9
16              Cc1ccc2c(C=O)cc(C=O)c(O)c2n1  Ebola virus replication (trVLP)  inhibition at 10 µM          -31.6
17                    Cc1ccc2ccc(Br)c(O)c2n1  Ebola virus replication (trVLP)  inhibition at 10 µM           90.5
18                         CCCc1ccc2ccccc2n1  Ebola virus replication (trVLP)  inhibition at 10 µM           10.8
19                    N#C/C=C/c1ccc2ccccc2n1  Ebola virus replication (trVLP)  inhibition at 10 µM           3.07
20  O=C(c1ccccn1)c1ccc2ccc(/C=C/c3ccc(O)c(O)c3)nc2c1O  Ebola virus replication (trVLP)  inhibition at 10 µM          -10.4
21  OCCCCCCCCCCCCCCCCc1ccc2ccccc2n1 [2Q16OH]  Ebola virus replication (trVLP)  inhibition at 10 µM           -124
22  O=C(c1ccc(F)c(F)c1)c1ccc2ccc(/C=C/c3ccc(O)c(O)c3)nc2c1O  Ebola virus replication (trVLP)  inhibition at 10 µM           81.8
23      O=C(O)c1ccc2ccc(/C=C/c3cccnc3)nc2c1O  Ebola virus replication (trVLP)  inhibition at 10 µM          -8.49
24   N#Cc1ccc2ccc(/C=C/c3ccc(O)c(O)c3)nc2c1O  Ebola virus replication (trVLP)  inhibition at 10 µM          -68.1
25   Oc1cccc2ccc(/C=C/c3ccc4cccc(O)c4n3)nc12  Ebola virus replication (trVLP)  inhibition at 10 µM          -8.41
26  O=C(CC(=O)c1ccc2ccc(C(=O)O)c(O)c2n1)c1ccccc1  Ebola virus replication (trVLP)  inhibition at 10 µM             71
27  O=C(O)c1ccc2ccc(/C=C/c3ccc([N+](=O)[O-])cc3)nc2c1O  Ebola virus replication (trVLP)  inhibition at 10 µM           63.1
28                 O=C(O)/C=C/c1ccc2ccccc2n1  Ebola virus replication (trVLP)  inhibition at 10 µM           30.6
29  CCN(CC)CCCC(C)Nc1ccnc2cc(Cl)ccc12 (centres unmarked) [Chloroquine, Chloroquine diphosphate, reference compound]  Ebola virus replication (trVLP)  inhibition at 10 µM           92.2
30  COc1ccc(CNC(=O)Nc2ccc3ccc(C(=O)O)c(O)c3n2)cc1  Ebola virus replication (trVLP)  inhibition at 10 µM          -44.6
31  CCN(CC)Cc1cc(Nc2ccnc3cc(Cl)ccc23)ccc1O [Amodiaquine, amodiaquine dihydrochloride dihydrate, reference compound]  Ebola virus replication (trVLP)  inhibition at 10 µM           97.7
32         C(/C=C/c1ccc2ccccc2n1)=C\c1ccccc1  Ebola virus replication (trVLP)  inhibition at 10 µM           0.21
33  Cc1ccc(C(=O)c2ccc3ccc(/C=C/c4ccc(O)c(O)c4)nc3c2O)cc1[N+](=O)[O-]  Ebola virus replication (trVLP)  inhibition at 10 µM          -68.1
34                     OC/C=C/c1ccc2ccccc2n1  Ebola virus replication (trVLP)  inhibition at 10 µM             89
